The origin of these recorded values is patent US20250034266A1.

Tested System: T1, human CCR8 (human, UniProt P51685 1-355)
T1 construct: whole, on cells; also called hCCR8
T1 sequence (P51685 whole entry): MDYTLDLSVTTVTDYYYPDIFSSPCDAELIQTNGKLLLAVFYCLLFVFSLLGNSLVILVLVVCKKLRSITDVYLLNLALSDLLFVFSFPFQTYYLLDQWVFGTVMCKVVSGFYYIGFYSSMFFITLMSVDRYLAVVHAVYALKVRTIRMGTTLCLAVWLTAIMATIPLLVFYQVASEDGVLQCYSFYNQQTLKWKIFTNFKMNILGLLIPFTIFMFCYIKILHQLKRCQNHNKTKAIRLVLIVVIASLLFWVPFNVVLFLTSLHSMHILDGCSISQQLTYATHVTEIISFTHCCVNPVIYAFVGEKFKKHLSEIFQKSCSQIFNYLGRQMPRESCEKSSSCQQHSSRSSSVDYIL
Protocol Details: FACS on HEK293-human CCR8 cells
Test Readout: Max MFI (MFI)
Quick reminder: number only, in MFI, skip the unit.

Solved entries (count: 2):
149F2C10 (antibody, V domains shown, purified murine hybridoma antibody) VH: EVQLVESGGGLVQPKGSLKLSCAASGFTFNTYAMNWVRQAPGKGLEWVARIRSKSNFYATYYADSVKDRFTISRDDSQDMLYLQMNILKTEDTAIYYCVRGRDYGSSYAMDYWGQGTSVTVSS VL: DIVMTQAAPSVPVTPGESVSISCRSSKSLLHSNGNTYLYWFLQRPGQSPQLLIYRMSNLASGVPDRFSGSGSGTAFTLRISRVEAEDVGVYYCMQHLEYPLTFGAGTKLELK; 1930
149F2C10_N28S (antibody, V domains shown, NG site removed variant of 149F2C10) VH: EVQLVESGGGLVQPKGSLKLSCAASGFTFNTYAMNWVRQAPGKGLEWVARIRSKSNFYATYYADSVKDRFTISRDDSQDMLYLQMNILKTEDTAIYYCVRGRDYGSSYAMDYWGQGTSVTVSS VL: DIVMTQAAPSVPVTPGESVSISCRSSKSLLHSSGNTYLYWFLQRPGQSPQLLIYRMSNLASGVPDRFSGSGSGTAFTLRISRVEAEDVGVYYCMQHLEYPLTFGAGTKLELK; 1420

# evaluate next
get_value(item= 149F2C10_N28Q (antibody, V domains shown, NG site removed variant of 149F2C10; detected with anti-mouse IgG) VH: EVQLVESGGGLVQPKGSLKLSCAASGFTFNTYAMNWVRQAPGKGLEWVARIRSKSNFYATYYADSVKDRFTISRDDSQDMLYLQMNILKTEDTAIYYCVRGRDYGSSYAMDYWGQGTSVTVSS VL: DIVMTQAAPSVPVTPGESVSISCRSSKSLLHSQGNTYLYWFLQRPGQSPQLLIYRMSNLASGVPDRFSGSGSGTAFTLRISRVEAEDVGVYYCMQHLEYPLTFGAGTKLELK , readout=Max MFI) returns 1640
